- System: SN12C renal
- Method Summary: NCI-60 one-dose screen, 48 h (100 = growth as untreated, 0 = no growth, -100 = all killed)
- Conditions Used: 10 µM unless noted
This is part of a sample that, as a whole, favours compounds with a hit. Of some 83,000 tested, about 20% had one in any assay. Active and inactive are the calls of the source. How the source made its calls: active means growth percent below 10; inactive means the rest.
Observed Property: growth

Observe how each entry below is paired with its result.
Entry "COc1ccc(CN2CCc3c(Cl)nc(N)nc3C2=O)c(OC)c1" ; growth = 17.2% [100 µM] (inactive)

growth reported for this molecule C#CCOCC1CN(C)C(=O)O1 (stereo not given) : 103% (inactive)

The molecule identified as "COc1cc2cc(NCc3ccncc3)nc(C)c2cc1OC" registered its growth at 97.1% (inactive)

Record "C=C1C(=O)O[C@H]2[C@H]1CC/C(CNS(=O)(=O)c1ccc3ccccc3c1)=C\CC[C@@]1(C)O[C@@H]21" . Reported growth: 29.1% (inactive)

--- query ---
Short answer for "COc1cc(/C=C/C(=O)c2ccc(NC(=O)CSc3nnc(-c4cc(-c5ccccc5)nc5ccccc45)n3-c3ccccc3)cc2)cc(OC)c1OC" : growth was 83.8% (inactive)
